The reported numbers originate from patent US12421240B2.

- Assay System: human TLR7 (Homo sapiens)
- Sequence (Q9NYK1 27-1049): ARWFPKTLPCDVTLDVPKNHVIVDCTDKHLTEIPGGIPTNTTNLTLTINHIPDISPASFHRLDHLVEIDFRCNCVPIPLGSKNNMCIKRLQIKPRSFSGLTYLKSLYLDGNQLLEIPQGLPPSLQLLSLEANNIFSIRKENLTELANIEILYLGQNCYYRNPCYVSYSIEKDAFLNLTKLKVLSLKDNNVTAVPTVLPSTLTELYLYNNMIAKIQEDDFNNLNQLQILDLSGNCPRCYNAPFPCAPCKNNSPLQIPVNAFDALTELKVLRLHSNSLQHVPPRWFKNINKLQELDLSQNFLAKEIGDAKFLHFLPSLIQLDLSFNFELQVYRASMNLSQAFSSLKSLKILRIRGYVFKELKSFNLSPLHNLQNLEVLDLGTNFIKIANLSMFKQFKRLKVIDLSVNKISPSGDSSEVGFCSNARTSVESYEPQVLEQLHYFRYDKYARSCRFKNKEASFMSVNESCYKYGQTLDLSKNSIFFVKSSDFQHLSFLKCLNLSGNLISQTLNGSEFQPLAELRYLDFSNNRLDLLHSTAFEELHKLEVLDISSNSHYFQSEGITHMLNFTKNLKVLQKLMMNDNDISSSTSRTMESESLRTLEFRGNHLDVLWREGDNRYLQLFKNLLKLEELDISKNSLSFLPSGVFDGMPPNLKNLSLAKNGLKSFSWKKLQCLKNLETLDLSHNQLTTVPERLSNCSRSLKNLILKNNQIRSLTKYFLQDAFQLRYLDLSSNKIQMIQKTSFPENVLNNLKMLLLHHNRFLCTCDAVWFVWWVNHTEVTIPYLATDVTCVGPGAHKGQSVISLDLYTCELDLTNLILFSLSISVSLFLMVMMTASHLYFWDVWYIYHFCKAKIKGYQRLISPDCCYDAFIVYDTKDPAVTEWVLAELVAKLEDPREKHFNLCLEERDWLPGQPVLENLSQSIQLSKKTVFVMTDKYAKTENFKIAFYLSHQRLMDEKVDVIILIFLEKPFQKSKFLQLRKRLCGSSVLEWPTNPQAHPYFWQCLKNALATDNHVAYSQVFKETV
- Measurement Notes: HEK293-Blue-hTLR-7 cells assay (SEAP reporter, R848 stimulation)
- Type: cell-based
- Experimental Conditions: HEK293-Blue-hTLR7 cells, R848 ligand, 20 hrs; read-out: HEK/hTLR7 IC50
pIC50: −log10 of the molar value.
Assign condition met to entries whose pIC50 meets or exceeds 8; assign condition not met to the rest.

{"Sample Smiles": "C[C@@H]1CN(c2ccc(C#N)c3ncccc23)C[C@@H]2CCN(Cc3ccc4c(c3)CNCC4)CCN21", "Assay System": "human TLR7 (Homo sapiens)", "Class Name": "condition met"}
{"Sample Smiles": "C[C@@H]1CN(c2ccc(C#N)c3ncccc23)C[C@@H]2CCN(Cc3cnc(N4CCNCC4)cn3)CCN21", "Assay System": "human TLR7 (Homo sapiens)", "Class Name": "condition met"}
{"Sample Smiles": "C[C@@H]1CN(c2ccc(C#N)c3ncccc23)C[C@@H]2CCN(Cc3ccc(N4C[C@@H](N)[C@@H](F)C4)cn3)CCN21", "Assay System": "human TLR7 (Homo sapiens)", "Class Name": "condition met"}
{"Sample Smiles": "C[C@@H]1CN(c2ccc(C#N)c3ncccc23)C[C@@H]2CCN(c3cncc4c3CCNC4)CCN21", "Assay System": "human TLR7 (Homo sapiens)", "Class Name": "condition not met"}
